Tested on: MS2 coat protein
ASSAY NAME: apparent KD of MS2 coat protein; designed switch direction (-1 OFF switch, 1 ON switch): -1; higher = weaker reporter binding
CONDITION LABEL: input ligand: FMN 200 uM
Class key for apparent KD of MS2 coat protein values: lower segment: < 0.03 µM; middle segment: ≥ 0.03 µM and < 0.1 µM; upper segment: ≥ 0.1 µM

Below are worked cases with known answers.
INPUT SEQUENCE	CAT
GUACUGACAGGAUAUACAUGAGGAUCACCCAUGUGCCCUUAUAGAUGCAAAGCAUCUAGUAGAAGGGUCUGUAC [Omei Ex3 Model Bachelor's Dilema v24] (Eterna round: R97, puzzle: Exclusion 3)	middle segment
AGUAGUUGUUUCCGUUCUUACAUGAGGAUCACCCAUGUUUCUUGUCGUGCUCGCGAUGCUCGUCAGACUACCAGAUG [salish99_TOv1_r3_059] (Eterna round: R96, puzzle: Sensor v3, turn-off variant 1)	middle segment
CUCUCUCAUGUGAGGAUAUCGAGGCAGUCCGCAAACGAGAAGGUACAUGAGGAUCACCCAUGUCAACAGUAAUG [BmEX4 C.8] (Eterna round: R97, puzzle: Brourd's mod of Exclusion 4)	upper segment

For this sequence, which bin applies? GUAGAGUCAGGAUAUACAAGAUCGAAAGAUCAAAGGUCCAUACAUGAGGAUCACCCAUGUAGAAGGGACUCUAC [Eli x2 4.09] (Eterna round: R97, puzzle: Exclusion 2)
middle segment

For this sequence, which bin applies? CGUUCGCGAGGAUAUGCAUUCGAGUCCAUUACGUGUCUGGGACUUGAGGAUCACCCAAGUAGAAGGCGUCUCAC [salish99_ex2_r4_646] (Eterna round: R97, puzzle: Exclusion 2)
upper segment
